Listed below: melting point values for each entry.

Chemical smiles: O=C(c1ccc([N+](=O)[O-])cc1)N1Cc2cccn2Cc2ccccc21
melting point: 188 to 190 °C
--
Chemical smiles: CC(C)=CCCC(C)=CC=C1SC(=S)N(CC(=O)O)C1=O
melting point: 95 to 98 °C
--
Chemical smiles: COc1ccc([N+](=O)[O-])cc1OC(F)F
melting point: 48 to 49 °C
--
Chemical smiles: CS(=O)(=O)c1ccc(-c2coc(=O)n2-c2ccc(F)cc2)cc1
melting point: 152 to 153 °C
--
Chemical smiles: CC(C)(C)OC(=O)N1C[C@@H]2OCc3c(-c4cccc(F)c4)nnn3[C@H]2C1
melting point: 249 to 250 °C

* * *

Quantity measured: melting point

Molecule: Fc1cc(F)c2c(c1)C[C@@H](n1c(CN3CCOCC3)c[nH]c1=S)CC2
Observed measurement: 182 to 184 °C
--
Molecule: COC(=O)CC[C@H](NC(=O)OCc1ccccc1)C(=O)O
Observed measurement: 61 to 63 °C
--
Molecule: CC(C)(C)C(=O)Oc1ccccc1-c1nnn[nH]1
Observed measurement: 82 to 85 °C
--
Molecule: O=Cc1c[nH]c2cccc(OCC3CO3)c12 (stereo unspecified)
Observed measurement: 108 to 110 °C
--
Molecule: CCOC(=O)C(Cc1ccc(CN(CC)CC)cc1)NC(=O)OC(C)(C)C (stereo unspecified)
Observed measurement: 56 °C
--
Molecule: CC(C)S(=O)(=O)NC(=O)Nc1ccc(Cl)c(C(F)(F)F)c1
Observed measurement: 135 to 140 °C
--
Molecule: Cc1ccoc1C(=O)Nc1ccc(-n2nc(C(F)(F)F)cc2C(F)(F)F)cc1
Observed measurement: 119 to 120 °C
--
Molecule: Cc1ccc2ccc(C(=O)O)c(O)c2n1
Observed measurement: 217 to 219 °C
--
Molecule: CCCn1c(=O)c2[nH]c(-c3ccc4c(c3)OCCO4)nc2n(Cc2ccccc2)c1=O
Observed measurement: 290 °C
--
Molecule: CC(C)(C)C(=O)Nc1c(F)cc(F)cc1C#Cc1ccc(SC2CCOCC2)cc1
Observed measurement: 148 to 149 °C
--
Molecule: CC(=O)Nc1ccc(NCc2cnc3nc(N)nc(N)c3n2)cc1
Observed measurement: > 260 °C
--
Molecule: Cc1cc2c3c(cc(C)c2[nH]c1=O)CC(CBr)O3 (stereo unspecified)
Observed measurement: 277 to 278 °C
--
Molecule: CCN(c1ccc(Cl)cc1C(O)c1ccccc1Cl)S(=O)(=O)c1ccc(OC)c(OC)c1 (stereo unspecified)
Observed measurement: 154 °C
--
Molecule: CC(=O)OC1CC2CCC3C(CCC4(C)C3CC(N3CCN(C)CC3)C4OC(C)=O)C2(C)CC1N1CCCCC1 (stereo unspecified)
Observed measurement: 95 to 98 °C
--
Molecule: FC1(F)CCN(c2cccc3c2OCCNC3)C1
Observed measurement: 54 °C
--
Molecule: CCC(O)c1nc(C)nc2c1c(C)c(C)n2-c1c(C)cc(C)cc1C (stereo unspecified)
Observed measurement: 143 to 144 °C
--
Molecule: O=C1CC2CSc3ccccc3C2=NN1c1ccc(Cl)cc1 (stereo unspecified)
Observed measurement: 146 to 147 °C
--
Molecule: COC(=O)CCc1nc(C(=O)OC)ccc1OC
Observed measurement: 98 to 100 °C
--
Molecule: CC(=O)c1c[nH]c(Cc2ccc(O)cc2)n1
Observed measurement: 229 to 231 °C
--
Molecule: CCCCOC(=O)n1ccc(NC(=O)Nc2cccc3c2C2CCCCN2C3=O)n1 (stereo unspecified)
Observed measurement: 136 °C
--
Molecule: CCOc1ccc(C2(O)CCN(CC(O)c3ccc(O)c(C)c3)CC2)cn1 (stereo unspecified)
Observed measurement: 189 °C
